Test system: K24384-001-R-PDC complex spheroid growth;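 also: percent of DMSO vehicle-treated spheroid viability set as 100%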
Assay Summary: Anticancer human tumor K24384-001-R-PDC patient-derived pancreatic adenocarcinoma cell line growth inhibition [AhR]
Run Parameters: second compound 3.16 µM; first compound 0.03 µM; active compounds read low
List of viability, T/C values.

Known results for compounds:
Compound	viability, T/C
O=C(C=Cn1cnc(-c2cc(C(F)(F)F)cc(C(F)(F)F)c2)n1)NNc1cnccn1 + CC(CO)NC(=O)c1cc(-c2ccc(Cl)cc2)nn(-c2cnn(C)c2)c1=O	94.3%
Nc1ncn(C2CC(O)C(CO)S2)c(=O)n1 (stereo not drawn) + Cc1cncc(-c2nc(NCCc3c[nH]c4ccccc34)c3ncn(C(C)C)c3n2)c1	28.2%

Next:
Measured viability, T/C, CCc1c2c(nc3ccc(O)cc13)-c1cc3c(c(=O)n1C2)COC(=O)[C@]3(O)CC + Cc1cncc(-c2nc(NCCc3c[nH]c4ccccc34)c3ncn(C(C)C)c3n2)c1 : 29.8%
